molecular target: recombinant human SIRT1 (Homo sapiens, UniProt Q96EB6); assay: SIRT1 fluorescent deacetylation assay (p53-382 acetylated peptide substrate); format: biochemical; conditions: Supplementary Table 3, flavones part II; 100 μM, 25 μM NAD+, 25 μM p53-382 acetylated peptide
Field: Ratio to Control Rate Mean ± SE. Provide a value for each of the compounds that follow.
Enter the number alone.

Input line: Item O=c1cc(-c2ccccc2)oc2ccccc12 has what recorded Ratio to Control Rate Mean ± SE?
Output line: 1.41

Input line: Item O=c1cc(-c2ccccc2)oc2cccc(O)c12 [5-Hydroxyflavone] has what recorded Ratio to Control Rate Mean ± SE?
Output line: 1.22

Input line: Item O=c1c(O)c(-c2cc(O)c(O)c(O)c2)oc2cc(O)cc(O)c12 [Myricetin, 3,5,7,3′,4′,5′-Hexahydroxyflavone] has what recorded Ratio to Control Rate Mean ± SE?
Output line: 0.898

Input line: Item O=c1c(O)c(-c2ccc(O)cc2O)oc2cc(O)cc(O)c12 [Morin, 3,5,7,2′,4′-Pentahydroxyflavone] has what recorded Ratio to Control Rate Mean ± SE?
Output line: 1.461

Input line: Item O=c1c(O)c(-c2cccc(O)c2O)oc2ccc(O)cc12 [3,6,2′,3′-Tetrahydroxyflavone] has what recorded Ratio to Control Rate Mean ± SE?
Output line: 1.74

Input line: Item O=c1c(O)c(-c2ccc(O)cc2)oc2c(O)c(O)ccc12 [7,8,3,4′-Tetrahydroxyflavone] has what recorded Ratio to Control Rate Mean ± SE?
Output line: 1.91

Input line: Item O=c1cc(-c2ccccc2)oc2cc(O)cc(O)c12 [5,7-Dihydroxyflavone] has what recorded Ratio to Control Rate Mean ± SE?
Output line: 1.51

Input line: Item O=c1cc(-c2ccc(O)cc2)oc2ccccc12 [4′-Hydroxyflavone] has what recorded Ratio to Control Rate Mean ± SE?
Output line: 1.73

Input line: Item O=c1c(O)c(-c2cc(O)c(O)c(O)c2)oc2cc(O)ccc12 [3,7,3′,4′,5′-Pentahydroxyflavone] has what recorded Ratio to Control Rate Mean ± SE?
Output line: 0.826

Input line: Item O=c1cc(-c2ccc(O)cc2)oc2cccc(O)c12 [5,4′-Dihydroxyflavone] has what recorded Ratio to Control Rate Mean ± SE?
Output line: 1.56

Input line: Item O=c1c(O)c(-c2ccc(O)c(O)c2)oc2c(O)c(O)cc(O)c12 [Gossypetin, 3,5,7,8,3′,4′-Hexahydroxyflavone] has what recorded Ratio to Control Rate Mean ± SE?
Output line: 0.723

###

target: recombinant human SIRT1 (Homo sapiens, UniProt Q96EB6); assay: SIRT1 fluorescent deacetylation assay (p53-382 acetylated peptide substrate); type: biochemical; details: Table 1; 100 μM compound, 25 μM NAD+, 25 μM p53-382 acetylated peptide
Field: Ratio to Control Rate Mean ± SE. Provide a value for each of the molecules that follow.

Input line: Item O=C(/C=C/c1ccc(O)c(O)c1)c1ccc(O)cc1O [Butein, 3,4,2′,4′-Tetrahydroxychalcone] has what recorded Ratio to Control Rate Mean ± SE?
Output line: 8.53 ± 0.89

Input line: Item O=c1c(O)c(-c2ccc(O)c(O)c2)oc2cc(O)ccc12 [Fisetin, 3,7,3′,4′-Tetrahydroxyflavone] has what recorded Ratio to Control Rate Mean ± SE?
Output line: 6.58 ± 0.69

Input line: Item Oc1cc(O)cc(/C=C/c2ccc(O)c(O)c2)c1 [Piceatannol, 3,5,3′,4′-Tetrahydroxy-trans-stilbene] has what recorded Ratio to Control Rate Mean ± SE?
Output line: 7.90 ± 0.50

Input line: Item O=c1c(O)c(-c2ccc(O)c(O)c2)oc2cc(O)cc(O)c12 [Quercetin, 3,5,7,3′,4′-Pentahydroxyflavone] has what recorded Ratio to Control Rate Mean ± SE?
Output line: 4.59 ± 0.47

###

Field: Ratio to Control Rate Mean ± SE. Provide a value for each of the compounds that follow.
molecular target: recombinant human SIRT1 (Homo sapiens); test: SIRT1 fluorescent deacetylation assay (p53-382 acetylated peptide substrate); format: biochemical; conditions: Table 10, resveratrol analogs; 100 μM, 25 μM NAD+, 25 μM p53-382 acetylated peptide

Input line: Item CC(C)c1ccc(/C=C/c2cc(O)cc(O)c2)cc1 has what recorded Ratio to Control Rate Mean ± SE?
Output line: 6.01 ± 0.15

Input line: Item CSc1ccc(/C=C/c2cc(O)cc(O)c2)cc1 has what recorded Ratio to Control Rate Mean ± SE?
Output line: 6.84 ± 1.26

Input line: Item O=[N+]([O-])c1ccc(/C=C/c2cc(O)cc(O)c2)cc1 [BML-229, 3,5-Dihydroxy-4′-nitro-trans-stilbene] has what recorded Ratio to Control Rate Mean ± SE?
Output line: 6.78 ± 0.22

Input line: Item [N-]=[N+]=Nc1ccc(/C=C/c2cc(O)cc(O)c2)cc1 [BML-232, 3,5-Dihydroxy-4′-azido-trans-stilbene] has what recorded Ratio to Control Rate Mean ± SE?
Output line: 7.24 ± 0.12

###

Field: Ratio to Control Rate Mean ± SE. Provide a value for each of the molecules that follow.
target: recombinant human SIRT1 (Homo sapiens, UniProt Q96EB6); assay: SIRT1 fluorescent deacetylation assay (p53-382 acetylated peptide substrate); format: biochemical; conditions: Supplementary Table 2, flavones part I; 100 μM, 25 μM NAD+, 25 μM p53-382 acetylated peptide

Input line: Item O=c1cc(-c2ccc(O)cc2)oc2cc(O)cc(O)c12 [Apigenin, 5,7,4′-Trihydroxyflavone] has what recorded Ratio to Control Rate Mean ± SE?
Output line: 2.77 ± 0.40

Input line: Item O=c1cc(-c2ccc(O)cc2)oc2cc(O)c(O)c(O)c12 [6-Hydroxyapigenin, 5,6,7,4′-Tetrahydroxyflavone] has what recorded Ratio to Control Rate Mean ± SE?
Output line: 3.06 ± 0.29

Input line: Item O=c1c(O)c(-c2ccc(O)c(O)c2)oc2ccc(O)cc12 [3,6,3′,4′-Tetrahydroxyflavone] has what recorded Ratio to Control Rate Mean ± SE?
Output line: 5.45 ± 0.57

Input line: Item O=c1c(O)c(-c2ccc(O)c(O)c2)oc2cc(O)ccc12 [Fisetin, 3,7,3′,4′-Tetrahydroxyflavone] has what recorded Ratio to Control Rate Mean ± SE?
Output line: 6.58

Input line: Item O=c1cc(-c2ccc(O)cc2)oc2cc(O)ccc12 [7,4′-Dihydroxyflavone] has what recorded Ratio to Control Rate Mean ± SE?
Output line: 1.91 ± 0.17

Input line: Item O=c1c(O)c(-c2ccc(O)c(O)c2)oc2cc(O)cc(O)c12 [Quercetin, 3,5,7,3′,4′-Pentahydroxyflavone] has what recorded Ratio to Control Rate Mean ± SE?
Output line: 4.59 ± 0.47

Input line: Item O=c1cc(-c2cc(O)c(O)c(O)c2)oc2cc(O)ccc12 [7,3′,4′,5′-Tetrahydroxyflavone] has what recorded Ratio to Control Rate Mean ± SE?
Output line: 3.62 ± 0.56

###

Target: recombinant human SIRT1 (Homo sapiens, UniProt Q96EB6)
Sequence (Q96EB6 1-747): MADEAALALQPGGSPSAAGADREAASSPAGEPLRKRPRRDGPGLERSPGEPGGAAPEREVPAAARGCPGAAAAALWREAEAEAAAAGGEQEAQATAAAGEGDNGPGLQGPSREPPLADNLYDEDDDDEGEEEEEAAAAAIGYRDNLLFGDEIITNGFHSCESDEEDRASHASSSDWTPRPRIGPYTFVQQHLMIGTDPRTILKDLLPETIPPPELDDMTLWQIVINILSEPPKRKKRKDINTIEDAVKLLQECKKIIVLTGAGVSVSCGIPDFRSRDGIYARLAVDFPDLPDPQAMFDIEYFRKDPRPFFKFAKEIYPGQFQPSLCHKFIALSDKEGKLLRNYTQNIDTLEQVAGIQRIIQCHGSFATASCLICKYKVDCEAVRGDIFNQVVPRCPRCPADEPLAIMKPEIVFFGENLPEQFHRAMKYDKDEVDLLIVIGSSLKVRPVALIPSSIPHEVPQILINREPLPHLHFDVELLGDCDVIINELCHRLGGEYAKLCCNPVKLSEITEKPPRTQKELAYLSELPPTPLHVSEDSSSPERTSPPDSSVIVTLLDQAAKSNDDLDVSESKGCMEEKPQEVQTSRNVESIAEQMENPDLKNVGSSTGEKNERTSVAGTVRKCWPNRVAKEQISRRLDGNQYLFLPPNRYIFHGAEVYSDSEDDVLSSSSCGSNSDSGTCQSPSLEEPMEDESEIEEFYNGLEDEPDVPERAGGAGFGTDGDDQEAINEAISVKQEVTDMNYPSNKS
Assay: SIRT1 fluorescent deacetylation assay (p53-382 acetylated peptide substrate)
Type: biochemical
Settings: Supplementary Table 4, isoflavones, flavanones, anthocyanidins; 100 μM, 25 μM NAD+, 25 μM p53-382 acetylated peptide
Result type: Ratio to Control Rate Mean ± SE
Enter the number alone.

Input line: Item O=c1c(-c2ccc(O)cc2)coc2cc(O)ccc12 [Daidzein, 7,4′-Dihydroxyisoflavone] has what recorded Ratio to Control Rate Mean ± SE?
Output line: 2.28

Input line: Item O=C1CC(c2ccc(O)cc2)Oc2cc(O)cc(O)c21 (stereo not shown) [Naringenin, 5,7,4′-Trihydroxyflavanone] has what recorded Ratio to Control Rate Mean ± SE?
Output line: 2.10

Input line: Item O=C1CC(c2ccccc2)Oc2ccccc21 (stereo not shown) [Flavanone] has what recorded Ratio to Control Rate Mean ± SE?
Output line: 1.92

Input line: Item O=c1c(-c2ccc(O)cc2)coc2cc(O)cc(O)c12 [5,7,4′-Trihydroxyisoflavone] has what recorded Ratio to Control Rate Mean ± SE?
Output line: 1.109

Input line: Item Oc1cc(O)c2cc(O)c(-c3ccc(O)c(O)c3)[o+]c2c1.[Cl-] [Cyanidin chloride] has what recorded Ratio to Control Rate Mean ± SE?
Output line: 0.451

Input line: Item Oc1cc(O)c2cc(O)c(-c3cc(O)c(O)c(O)c3)[o+]c2c1.[Cl-] [Delphinidin chloride] has what recorded Ratio to Control Rate Mean ± SE?
Output line: 0.4473

Input line: Item O=C1c2c(O)cc(O)cc2OC(c2ccc(O)c(O)c2)C1O (stereo not shown) [3,5,7,3′,4′-Pentahydroxyflavanone] has what recorded Ratio to Control Rate Mean ± SE?
Output line: 1.97

Every entry's value here was drawn from patent US20060084135A1.
